# System: HCC1419
# Test: Cytotoxicity against human HCC1419 cells measured after 3 days
# Assay type: functional, cell-based
# Test settings: HCC1419, 72 h
Value kind: pIC50
Note on pIC50: it is the negative log10 of concentration, concentration in mol/L.

According to the records, this compound C/C=C/Cn1cc(-c2cc(OC)c(C(=O)N3CCOCC3)cc2OC)c2cc(C)[nH]c2c1=O displays pIC50 of 5.30

* * *

# System: MCF7
# Test: Cytotoxicity against human MCF-7-SER cells measured after 8 days
# Assay type: functional, cell-based
# Test settings: MCF7, 192 h
Value kind: pIC50
Note on pIC50: it is the negative log10 of concentration, concentration in mol/L.

According to the records, this compound C/C=C/Cn1cc(-c2cc(OC)c(C(=O)N3CCOCC3)cc2OC)c2cc(C)[nH]c2c1=O displays pIC50 of 5.70

* * *

# Tested on: AGS
# Test: Cytotoxicity against human AGS cells measured after 8 days
# Type: functional, cell-based
# Test settings: 192 h
Value kind: pIC50
Note on pIC50: it is the negative log10 of concentration, concentration in mol/L.

C/C=C/Cn1cc(-c2ccc(C(C)(C)O)cc2OC)c2cc[nH]c2c1=O	4.70

Turning now to a further record.
Considering C/C=C/Cn1cc(-c2ccc(C(=O)N3CCOCC3)cc2)c2cc[nH]c2c1=O , its pIC50 with AGS was recorded as 4.70

* * *

A collection of compounds and their measured IC50
# Test: Cytotoxicity against mouse AE17 cells measured after 8 days
# Format: functional, cell-based
# Test settings: AE17, 192 h
The response must be a number in µM with no trailing unit.

C/C=C/Cn1cc(-c2ccc(C(C)(C)O)cc2OC)c2cc[nH]c2c1=O	20

Turning now to a further record.
According to the records, this compound C/C=C/Cn1cc(-c2ccc(C(=O)N3CCOCC3)cc2)c2cc[nH]c2c1=O displays IC50 of 18.1

* * *

# Tested on: HT-29
# Test: Cytotoxicity against human HT-29 cells measured after 8 days
# Type: functional, cell-based
# Test settings: HT-29, 192 h
A collection of compounds and their measured pIC50
Note on pIC50: it is the negative log10 of concentration, concentration in mol/L.

C/C=C/Cn1cc(-c2ccc(C(C)(C)O)cc2OC)c2cc[nH]c2c1=O	4.70
C/C=C/Cn1cc(-c2cc(OC)c(C(=O)N3CCOCC3)cc2OC)c2cc(C)[nH]c2c1=O	5.70

According to the records, this compound C/C=C/Cn1cc(-c2ccc(C(=O)N3CCOCC3)cc2)c2cc[nH]c2c1=O displays pIC50 of 4.70

* * *

# Test: Cytotoxicity against human HCC2302 cells measured after 8 days
# Format: functional, cell-based
# Test settings: HCC2302, 192 h
Value kind: IC50
Answer format reminder: number followed by unit.

C/C=C/Cn1cc(-c2ccc(C(C)(C)O)cc2OC)c2cc[nH]c2c1=O	20 µM
C/C=C/Cn1cc(-c2ccc(C(=O)N3CCOCC3)cc2)c2cc[nH]c2c1=O	20 µM

According to the records, this compound C/C=C/Cn1cc(-c2cc(OC)c(C(=O)N3CCOCC3)cc2OC)c2cc(C)[nH]c2c1=O displays IC50 of 2 µM

* * *

# Test: Cytotoxicity against human HCS-2 cells measured after 8 days
# Format: functional, cell-based
# Test settings: HCS-2, 192 h
A collection of compounds and their measured pIC50
Note on pIC50: it is the negative log10 of concentration, concentration in mol/L.

C/C=C/Cn1cc(-c2ccc(C(=O)N3CCOCC3)cc2)c2cc[nH]c2c1=O	4.70

Turning now to a further record.
According to the records, this compound C/C=C/Cn1cc(-c2ccc(C(C)(C)O)cc2OC)c2cc[nH]c2c1=O displays pIC50 of 4.70

* * *

A collection of compounds and their measured pIC50
# Test: Cytotoxicity against human PaTu 8988s cells measured after 8 days
# Type: functional, cell-based
# Test settings: 192 h
Note on pIC50: it is the negative log10 of concentration, concentration in mol/L.

C/C=C/Cn1cc(-c2ccc(C(=O)N3CCOCC3)cc2)c2cc[nH]c2c1=O	4.70

Turning now to a further record.
According to the records, this compound C/C=C/Cn1cc(-c2ccc(C(C)(C)O)cc2OC)c2cc[nH]c2c1=O displays pIC50 of 4.70

* * *

# Tested on: IGR-1
# Test: Cytotoxicity against human IGR-1 cells measured after 8 days
# Assay type: functional, cell-based
# Test settings: IGR-1, 192 h
A collection of compounds and their measured pIC50
Note on pIC50: it is the negative log10 of concentration, concentration in mol/L.

C/C=C/Cn1cc(-c2ccc(C(=O)N3CCOCC3)cc2)c2cc[nH]c2c1=O	4.70

Turning now to a further record.
According to the records, this compound C/C=C/Cn1cc(-c2ccc(C(C)(C)O)cc2OC)c2cc[nH]c2c1=O displays pIC50 of 4.70

* * *

# Measured on: ATPase family AAA domain-containing protein 2 (Homo sapiens, UniProt Q6PL18)
# Sequence (Q6PL18 whole entry, the tested form may be a part): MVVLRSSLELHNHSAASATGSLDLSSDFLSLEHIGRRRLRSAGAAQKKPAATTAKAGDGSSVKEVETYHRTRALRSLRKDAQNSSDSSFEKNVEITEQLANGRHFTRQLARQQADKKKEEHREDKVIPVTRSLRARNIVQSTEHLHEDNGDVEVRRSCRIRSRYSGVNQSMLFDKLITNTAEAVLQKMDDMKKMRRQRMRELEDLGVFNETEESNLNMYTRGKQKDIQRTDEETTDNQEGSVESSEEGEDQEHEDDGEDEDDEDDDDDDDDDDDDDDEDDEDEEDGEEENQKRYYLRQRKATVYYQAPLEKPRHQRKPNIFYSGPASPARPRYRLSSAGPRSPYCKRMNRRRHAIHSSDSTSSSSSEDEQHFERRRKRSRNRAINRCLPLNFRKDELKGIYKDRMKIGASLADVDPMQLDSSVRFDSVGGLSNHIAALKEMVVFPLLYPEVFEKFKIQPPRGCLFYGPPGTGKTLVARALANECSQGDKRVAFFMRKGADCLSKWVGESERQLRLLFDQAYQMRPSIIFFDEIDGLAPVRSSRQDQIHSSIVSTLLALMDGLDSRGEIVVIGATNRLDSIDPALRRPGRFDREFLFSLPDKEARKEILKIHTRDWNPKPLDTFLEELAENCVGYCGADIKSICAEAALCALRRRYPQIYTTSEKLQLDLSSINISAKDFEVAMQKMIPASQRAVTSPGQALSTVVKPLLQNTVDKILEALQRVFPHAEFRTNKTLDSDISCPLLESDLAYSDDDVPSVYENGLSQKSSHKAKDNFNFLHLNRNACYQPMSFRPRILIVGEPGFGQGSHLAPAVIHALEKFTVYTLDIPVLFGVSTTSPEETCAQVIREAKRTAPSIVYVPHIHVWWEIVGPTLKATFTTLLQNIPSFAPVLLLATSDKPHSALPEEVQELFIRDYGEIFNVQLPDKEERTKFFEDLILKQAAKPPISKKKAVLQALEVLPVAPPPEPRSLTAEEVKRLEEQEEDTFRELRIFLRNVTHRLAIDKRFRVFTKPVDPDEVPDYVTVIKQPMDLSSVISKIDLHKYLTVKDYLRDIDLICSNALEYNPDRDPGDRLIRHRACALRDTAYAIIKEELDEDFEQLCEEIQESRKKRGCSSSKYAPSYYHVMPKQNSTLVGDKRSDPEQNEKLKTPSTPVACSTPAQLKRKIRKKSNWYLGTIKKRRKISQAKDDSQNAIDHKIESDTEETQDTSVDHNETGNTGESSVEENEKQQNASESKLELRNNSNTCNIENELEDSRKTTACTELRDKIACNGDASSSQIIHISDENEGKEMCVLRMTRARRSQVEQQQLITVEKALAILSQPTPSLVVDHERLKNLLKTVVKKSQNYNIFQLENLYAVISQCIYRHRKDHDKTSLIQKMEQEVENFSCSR
# Test: Binding affinity to human partial length ATAD2A (Q981 to R1108 residues) expressed in bacterial expression system by BROMOscan assay
Value kind: Kd

According to the records, this compound C/C=C/Cn1cc(-c2ccc(C(=O)N3CCOCC3)cc2)c2cc[nH]c2c1=O displays Kd of > 10 µM

According to the records, this compound C/C=C/Cn1cc(-c2cc(OC)c(C(C)(C)O)cc2OC)c2cc(C)[nH]c2c1=O displays Kd of 9.3 µM

According to the records, this compound C/C=C/Cn1cc(-c2cc(OC)c(C(=O)N3CCOCC3)cc2OC)c2cc(C)[nH]c2c1=O displays Kd of > 10 µM

According to the records, this compound C/C=C/Cn1cc(-c2ccc(C(C)(C)O)cc2OC)c2cc[nH]c2c1=O displays Kd of > 10 µM

* * *

# Test: Cytotoxicity against human RKN cells measured after 3 days
# Format: functional, cell-based
# Test settings: 72 h
Value kind: IC50 (µM)
The response must be a number in µM with no trailing unit.

According to the records, this molecule C/C=C/Cn1cc(-c2cc(OC)c(C(=O)N3CCOCC3)cc2OC)c2cc(C)[nH]c2c1=O displays IC50 of 5

* * *

# Tested on: PEO1
# Test: Cytotoxicity against human PEO1 cells measured after 8 days
# Format: functional, cell-based
# Test settings: PEO1, 192 h
Value kind: pIC50
Note on pIC50: it is the negative log10 of concentration, concentration in mol/L.

C/C=C/Cn1cc(-c2ccc(C(C)(C)O)cc2OC)c2cc[nH]c2c1=O	4.70

According to the records, this compound C/C=C/Cn1cc(-c2ccc(C(=O)N3CCOCC3)cc2)c2cc[nH]c2c1=O displays pIC50 of 4.70

* * *

# System: IMR-32
# Test: Cytotoxicity against human IMR-32 cells measured after 3 days
# Assay type: functional, cell-based
# Test settings: IMR-32, 72 h
Value kind: pIC50
Note on pIC50: it is the negative log10 of concentration, concentration in mol/L.

According to the records, this molecule C/C=C/Cn1cc(-c2cc(OC)c(C(=O)N3CCOCC3)cc2OC)c2cc(C)[nH]c2c1=O displays pIC50 of 5.30

* * *

# Test system: ACHN
# Test: Cytotoxicity against human ACHN cells measured after 8 days
# Assay type: functional, cell-based
# Test settings: 192 h
Value kind: IC50 (µM)
The response must be a number in µM with no trailing unit.

C/C=C/Cn1cc(-c2ccc(C(C)(C)O)cc2OC)c2cc[nH]c2c1=O	20

Considering C/C=C/Cn1cc(-c2ccc(C(=O)N3CCOCC3)cc2)c2cc[nH]c2c1=O , its IC50 with ACHN was recorded as 20

* * *

# Measured on: Bromodomain testis-specific protein (Homo sapiens, UniProt Q58F21)
# Test: Binding affinity to human partial length BRDT bromodomain 1 (N21 to E137 residues) expressed in bacterial expression system by BROMOscan assay
Value kind: pKd
Note on pKd: it is the negative log10 of concentration, concentration in mol/L.

Examples with their reported pKd follow.
C/C=C/Cn1cc(-c2ccc(C(=O)N3CCOCC3)cc2)c2cc[nH]c2c1=O	5.60
C/C=C/Cn1cc(-c2ccc(C(C)(C)O)cc2OC)c2cc[nH]c2c1=O	6.08

Turning now to a further record.
According to the records, this molecule C/C=C/Cn1cc(-c2cc(OC)c(C(C)(C)O)cc2OC)c2cc(C)[nH]c2c1=O displays pKd of 5.68

* * *

# Tested on: KYSE-180
# Test: Cytotoxicity against human KYSE-180 cells measured after 8 days
# Type: functional, cell-based
# Test settings: KYSE-180, 192 h
Value kind: pIC50
Note on pIC50: it is the negative log10 of concentration, concentration in mol/L.

C/C=C/Cn1cc(-c2ccc(C(=O)N3CCOCC3)cc2)c2cc[nH]c2c1=O	4.70

According to the records, this compound C/C=C/Cn1cc(-c2ccc(C(C)(C)O)cc2OC)c2cc[nH]c2c1=O displays pIC50 of 4.70
